Target: T1, Human TROP2 ECD (31-274 AA), biotinylated (human, UniProt P09758 31-274, biotinylated (site not stated))
T1 construct: also called tumor-associated calcium signal transducer 2; Human TROP2-biotin
T1 sequence: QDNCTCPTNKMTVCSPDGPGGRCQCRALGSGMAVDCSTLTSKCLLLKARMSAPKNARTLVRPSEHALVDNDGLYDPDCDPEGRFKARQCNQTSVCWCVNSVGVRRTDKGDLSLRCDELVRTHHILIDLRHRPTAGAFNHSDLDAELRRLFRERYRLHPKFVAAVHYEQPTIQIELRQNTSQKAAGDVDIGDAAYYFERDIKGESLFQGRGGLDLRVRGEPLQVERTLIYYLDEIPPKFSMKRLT
Test: BLI (Octet), biotinylated human TROP2 ECD on SAX sensor, Fab 6.25-50 nM
assay endpoint: Kd (nM)

>>> quantitative_result("TBD-12 (anti-TROP2 Fab, HC G99A) (Fab, V domains shown) VH: QVQLQQSGSELKKPGASVKVSCKASGYTFTNYGMNWVKQAPGQGLKWMGWINTYTGEPTYTDDFKGRFAFSLDTSVSTAYLQISSLKADDTAVYFCARAGFGSSYWYFDVWGQGSLVTVSS VL: DIQLTQSPSSLSASVGDRVSITCKASQDVSIAVAWYQQKPGKAPKLLIYSASYRYTGVPDRFSGSGSGTDFTLTISSLQPEDFAVYYCQQHYITPLTFGAGTKVEIKR")
0.492
>>> quantitative_result("TBD-11 (anti-TROP2 Fab, HC R98A) (Fab, V domains shown, also called TBD-11 (HC R98A mutant)) VH: QVQLQQSGSELKKPGASVKVSCKASGYTFTNYGMNWVKQAPGQGLKWMGWINTYTGEPTYTDDFKGRFAFSLDTSVSTAYLQISSLKADDTAVYFCAAGGFGSSYWYFDVWGQGSLVTVSS VL: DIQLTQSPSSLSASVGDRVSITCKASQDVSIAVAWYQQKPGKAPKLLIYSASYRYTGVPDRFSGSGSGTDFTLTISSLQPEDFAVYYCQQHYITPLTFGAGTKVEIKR")
3.88
